Reported pKi, UniProt:P33535.
Sequence (P33535 whole entry): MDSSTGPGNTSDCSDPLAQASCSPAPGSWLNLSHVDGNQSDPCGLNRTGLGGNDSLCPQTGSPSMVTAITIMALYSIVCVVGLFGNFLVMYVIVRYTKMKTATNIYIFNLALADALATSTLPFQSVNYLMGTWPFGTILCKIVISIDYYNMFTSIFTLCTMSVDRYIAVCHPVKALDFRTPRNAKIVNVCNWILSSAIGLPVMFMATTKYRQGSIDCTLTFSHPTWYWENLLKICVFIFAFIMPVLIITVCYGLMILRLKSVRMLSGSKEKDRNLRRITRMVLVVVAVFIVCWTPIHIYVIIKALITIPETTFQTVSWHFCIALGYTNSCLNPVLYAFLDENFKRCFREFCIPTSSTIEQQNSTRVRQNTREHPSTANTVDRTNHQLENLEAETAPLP
One number for each entry, as −log10 of the molar value.

Would you please look over these solved cases?
CC[C@H](C)[C@H](NC(=O)[C@H](CCCNC(=N)N)NC(=O)[C@H](CCCNC(=N)N)NC(=O)[C@@H]1CNC(=O)C[C@@H](NC(=O)[C@@H](N)Cc2ccc(O)cc2)C(=O)N[C@@H](Cc2c[nH]c3ccccc23)C(=O)N[C@@H](Cc2ccccc2)C(=O)N1)C(=O)N[C@@H](CCCNC(=N)N)C(=O)N1CCC[C@H]1C(=O)N[C@@H](CCCCN)C(N)=O :: 8.68
CC[C@H](C)[C@H](NC(=O)[C@H](CCCN=C(N)N)NC(=O)[C@H](CCCN=C(N)N)NC(=O)[C@@H]1CNC(=O)C[C@@H](NC(=O)[C@@H](N)Cc2ccc(O)cc2)C(=O)N[C@@H](C)C(=O)N[C@@H](Cc2ccccc2)C(=O)N1)C(=O)N[C@@H](CCCN=C(N)N)C(=O)N1CCC[C@H]1C(=O)N[C@@H](CCCCN)C(N)=O :: 8.60
CC[C@H](C)[C@H](NC(=O)[C@H](CCCN=C(N)N)NC(=O)[C@H](CCCN=C(N)N)NC(=O)[C@H](CN)NC(=O)[C@H](Cc1ccccc1)NC(=O)[C@@H](Cc1c[nH]c2ccccc12)NC(=O)[C@@H](CC(=O)O)NC(=O)[C@@H](N)Cc1ccc(O)cc1)C(=O)N[C@@H](CCCN=C(N)N)C(=O)N1CCC[C@H]1C(=O)N[C@@H](CCCCN)C(N)=O :: 8.34
CC[C@H](C)[C@H](NC(=O)[C@H](CCCN=C(N)N)NC(=O)[C@H](CCCN=C(N)N)NC(=O)[C@H](CC(C)C)NC(=O)[C@H](Cc1ccccc1)NC(=O)[C@H](Cc1c[nH]c2ccccc12)NC(=O)CNC(=O)[C@@H](N)Cc1ccc(O)cc1)C(=O)N[C@@H](CCCN=C(N)N)C(=O)N1CCC[C@H]1C(=O)N[C@@H](CCCCN)C(N)=O :: 7.37
CC[C@H](C)[C@H](NC(=O)[C@H](CCCNC(=N)N)NC(=O)[C@H](CCCNC(=N)N)NC(=O)[C@@H]1CNC(=O)C[C@@H](NC(=O)[C@@H](N)Cc2ccc(O)cc2)C(=O)N[C@H](C)C(=O)N[C@@H](Cc2ccccc2)C(=O)N1)C(=O)N[C@@H](CCCNC(=N)N)C(=O)N1CCC[C@H]1C(=O)N[C@@H](CCCCN)C(N)=O :: 8.41

Read the next record carefully.
Query string: Give its pKi value. Item: `CC[C@H](C)[C@H](NC(=O)[C@H](CCCN=C(N)N)NC(=O)[C@H](CCCN=C(N)N)NC(=O)[C@H](CN)NC(=O)[C@H](Cc1ccccc1)NC(=O)[C@H](Cc1c[nH]c2ccccc12)NC(=O)[C@@H](CC(=O)O)NC(=O)[C@@H](N)Cc1ccc(O)cc1)C(=O)N[C@@H](CCCN=C(N)N)C(=O)N1CCC[C@H]1C(=O)N[C@@H](CCCCN)C(N)=O`
Result string: 8.47

----------
- TARGET_OR_TEST_SYSTEM: Kappa-type opioid receptor (Rattus norvegicus)
- Sequence (P34975 whole entry): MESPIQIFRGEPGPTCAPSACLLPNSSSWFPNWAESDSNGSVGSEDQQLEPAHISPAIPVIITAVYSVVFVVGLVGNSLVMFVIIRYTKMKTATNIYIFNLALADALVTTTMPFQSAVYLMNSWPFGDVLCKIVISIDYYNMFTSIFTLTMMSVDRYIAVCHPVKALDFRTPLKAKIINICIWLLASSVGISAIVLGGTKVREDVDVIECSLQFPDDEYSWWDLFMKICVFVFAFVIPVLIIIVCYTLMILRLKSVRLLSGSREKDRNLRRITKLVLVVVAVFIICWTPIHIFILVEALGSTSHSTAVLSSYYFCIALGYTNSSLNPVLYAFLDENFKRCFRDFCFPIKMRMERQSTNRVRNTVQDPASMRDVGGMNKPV
Please respond with reported pKi for every item in the list.
One number for each entry, as −log10 of the molar value.

Would you please look over these solved cases?
CC[C@H](C)[C@H](NC(=O)[C@H](CCCN=C(N)N)NC(=O)[C@H](CCCN=C(N)N)NC(=O)[C@H](CN)NC(=O)[C@H](Cc1ccccc1)NC(=O)[C@@H](Cc1c[nH]c2ccccc12)NC(=O)[C@@H](CC(=O)O)NC(=O)[C@@H](N)Cc1ccc(O)cc1)C(=O)N[C@@H](CCCN=C(N)N)C(=O)N1CCC[C@H]1C(=O)N[C@@H](CCCCN)C(N)=O :: 8.90
CC[C@H](C)[C@H](NC(=O)[C@H](CCCN=C(N)N)NC(=O)[C@H](CCCN=C(N)N)NC(=O)[C@@H]1CNC(=O)C[C@@H](NC(=O)[C@@H](N)Cc2ccc(O)cc2)C(=O)NCC(=O)N[C@@H](Cc2ccccc2)C(=O)N1)C(=O)N[C@@H](CCCN=C(N)N)C(=O)N1CCC[C@H]1C(=O)N[C@@H](CCCCN)C(N)=O :: 9.34
CC[C@H](C)[C@H](NC(=O)[C@H](CCCN=C(N)N)NC(=O)[C@H](CCCN=C(N)N)NC(=O)[C@H](CN)NC(=O)[C@H](Cc1ccccc1)NC(=O)[C@H](C)NC(=O)[C@@H](CC(=O)O)NC(=O)[C@@H](N)Cc1ccc(O)cc1)C(=O)N[C@@H](CCCN=C(N)N)C(=O)N1CCC[C@H]1C(=O)N[C@@H](CCCCN)C(N)=O :: 9.07

Query string: Give its pKi value. Item: `CC[C@H](C)[C@H](NC(=O)[C@H](CCCN=C(N)N)NC(=O)[C@H](CCCN=C(N)N)NC(=O)[C@H](CN)NC(=O)[C@H](Cc1ccccc1)NC(=O)[C@H](Cc1c[nH]c2ccccc12)NC(=O)[C@@H](CC(=O)O)NC(=O)[C@@H](N)Cc1ccc(O)cc1)C(=O)N[C@@H](CCCN=C(N)N)C(=O)N1CCC[C@H]1C(=O)N[C@@H](CCCCN)C(N)=O`
Result string: 8.87

----------
- TARGET_OR_TEST_SYSTEM: Delta-type opioid receptor (Mus musculus, UniProt P32300)
- Sequence (P32300 whole entry): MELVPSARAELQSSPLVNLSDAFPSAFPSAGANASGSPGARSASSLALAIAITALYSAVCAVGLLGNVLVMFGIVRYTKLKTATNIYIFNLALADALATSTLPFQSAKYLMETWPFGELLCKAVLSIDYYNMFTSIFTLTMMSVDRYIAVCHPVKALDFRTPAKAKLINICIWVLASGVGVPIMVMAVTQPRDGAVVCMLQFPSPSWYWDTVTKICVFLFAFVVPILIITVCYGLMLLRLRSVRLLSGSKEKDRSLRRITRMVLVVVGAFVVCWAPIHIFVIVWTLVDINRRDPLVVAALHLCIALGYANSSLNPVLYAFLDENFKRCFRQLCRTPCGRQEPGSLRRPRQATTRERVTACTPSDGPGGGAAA
- EXPERIMENT: Binding affinity towards opioid receptor delta 1 expressed in CHO cells was determined by using [3H]DPDPE as radioligand
Please respond with reported Ki for every item in the list.
Answers are plain numbers, in nM.

CC[C@H](C)[C@H](NC(=O)[C@H](CCCN=C(N)N)NC(=O)[C@H](CCCN=C(N)N)NC(=O)[C@@H]1CNC(=O)C[C@@H](NC(=O)[C@@H](N)Cc2ccc(O)cc2)C(=O)N[C@H](Cc2c[nH]c3ccccc23)C(=O)N[C@@H](Cc2ccccc2)C(=O)N1)C(=O)N[C@@H](CCCN=C(N)N)C(=O)N1CCC[C@H]1C(=O)N[C@@H](CCCCN)C(N)=O :: 949
CC[C@H](C)[C@H](NC(=O)[C@H](CCCN=C(N)N)NC(=O)[C@H](CCCN=C(N)N)NC(=O)[C@H](CN)NC(=O)[C@H](Cc1ccccc1)NC(=O)CNC(=O)[C@@H](CC(=O)O)NC(=O)[C@@H](N)Cc1ccc(O)cc1)C(=O)N[C@@H](CCCN=C(N)N)C(=O)N1CCC[C@H]1C(=O)N[C@@H](CCCCN)C(=O)N[C@@H](CC(C)C)C(=O)N[C@@H](CCCCN)C(N)=O :: 3.9

Read the next record carefully.
Query string: Give its Ki value. Item: `CC[C@H](C)[C@H](NC(=O)[C@H](CCCNC(=N)N)NC(=O)[C@H](CCCNC(=N)N)NC(=O)[C@@H]1CNC(=O)C[C@@H](NC(=O)[C@@H](N)Cc2ccc(O)cc2)C(=O)N[C@H](C)C(=O)N[C@@H](Cc2ccccc2)C(=O)N1)C(=O)N[C@@H](CCCNC(=N)N)C(=O)N1CCC[C@H]1C(=O)N[C@@H](CCCCN)C(N)=O`
Result string: 139

----------
- TARGET_OR_TEST_SYSTEM: Kappa-type opioid receptor (Rattus norvegicus)
pKi: −log10 of the molar value. Where a SMILES comes first, the peptide text is derived from it.
Tick Fulfilled if pKi is 9 or greater. Tick Not fulfilled if pKi is less than 9.

Use the examples below as a reference point.
CC[C@H](C)[C@H](NC(=O)[C@H](CCCNC(=N)N)NC(=O)[C@H](CCCNC(=N)N)NC(=O)[C@H](CC(C)C)NC(=O)[C@H](Cc1ccccc1)NC(=O)[C@H](C)NC(=O)CNC(=O)[C@@H](N)Cc1ccc(O)cc1)C(=O)N[C@@H](CCCNC(=N)N)C(=O)N1CCC[C@H]1C(=O)N[C@@H](CCCCN)C(N)=O :: Fulfilled
CC[C@H](C)[C@H](NC(=O)[C@H](CCCNC(=N)N)NC(=O)[C@H](CCCNC(=N)N)NC(=O)[C@@H]1CNC(=O)C[C@@H](NC(=O)[C@@H](N)Cc2ccc(O)cc2)C(=O)N[C@H](C)C(=O)N[C@@H](Cc2ccccc2)C(=O)N1)C(=O)N[C@@H](CCCNC(=N)N)C(=O)N1CCC[C@H]1C(=O)N[C@@H](CCCCN)C(N)=O :: Fulfilled
CC[C@H](C)[C@H](NC(=O)[C@H](CCCN=C(N)N)NC(=O)[C@H](CCCN=C(N)N)NC(=O)[C@H](CN)NC(=O)[C@H](Cc1ccccc1)NC(=O)CNC(=O)[C@@H](CC(=O)O)NC(=O)[C@@H](N)Cc1ccc(O)cc1)C(=O)N[C@@H](CCCN=C(N)N)C(=O)N1CCC[C@H]1C(=O)N[C@@H](CCCCN)C(=O)N[C@@H](CC(C)C)C(=O)N[C@@H](CCCCN)C(N)=O :: Fulfilled
CC[C@H](C)[C@H](NC(=O)[C@H](CCCNC(=N)N)NC(=O)[C@H](CCCNC(=N)N)NC(=O)[C@H](CC(C)C)NC(=O)[C@H](Cc1ccccc1)NC(=O)[C@@H](C)NC(=O)CNC(=O)[C@@H](N)Cc1ccc(O)cc1)C(=O)N[C@@H](CCCNC(=N)N)C(=O)N1CCC[C@H]1C(=O)N[C@@H](CCCCN)C(N)=O :: Fulfilled
CC[C@H](C)[C@H](NC(=O)[C@H](CCCN=C(N)N)NC(=O)[C@H](CCCN=C(N)N)NC(=O)[C@H](CC(C)C)NC(=O)[C@H](Cc1ccccc1)NC(=O)CNC(=O)CNC(=O)[C@@H](N)Cc1ccc(O)cc1)C(=O)N[C@@H](CCCN=C(N)N)C(=O)N1CCC[C@H]1C(=O)N[C@@H](CCCCN)C(N)=O :: Fulfilled
CC[C@H](C)[C@H](NC(=O)[C@H](CCCN=C(N)N)NC(=O)[C@H](CCCN=C(N)N)NC(=O)[C@@H]1CNC(=O)C[C@@H](NC(=O)[C@@H](N)Cc2ccc(O)cc2)C(=O)NCC(=O)N[C@@H](Cc2ccccc2)C(=O)N1)C(=O)N[C@@H](CCCN=C(N)N)C(=O)N1CCC[C@H]1C(=O)N[C@@H](CCCCN)C(=O)N[C@@H](CC(C)C)C(=O)N[C@@H](CCCCN)C(N)=O (HELM PEPTIDE1{Y.[dD].G.F.[O=C([C@H](CN[*:3])N[*:1])[*:2]].R.R.I.R.P.K.L.K.[am]}$PEPTIDE1,PEPTIDE1,2:R3-5:R3$$$V2.0) :: Fulfilled

Query string: Can `CC[C@H](C)[C@H](NC(=O)[C@H](CCCN=C(N)N)NC(=O)[C@H](CCCN=C(N)N)NC(=O)[C@H](CN)NC(=O)[C@H](Cc1ccccc1)NC(=O)[C@@H](C)NC(=O)[C@@H](CC(=O)O)NC(=O)[C@@H](N)Cc1ccc(O)cc1)C(=O)N[C@@H](CCCN=C(N)N)C(=O)N1CCC[C@H]1C(=O)N[C@@H](CCCCN)C(N)=O` be said to have pKi at or above 9?
Result string: Not fulfilled

Query string: Can `CC[C@H](C)[C@H](NC(=O)[C@H](CCCNC(=N)N)NC(=O)[C@H](CCCNC(=N)N)NC(=O)[C@@H]1CNC(=O)C[C@@H](NC(=O)[C@@H](N)Cc2ccc(O)cc2)C(=O)N2CCC[C@H]2C(=O)N[C@@H](Cc2ccccc2)C(=O)N1)C(=O)N[C@@H](CCCNC(=N)N)C(=O)N1CCC[C@H]1C(=O)N[C@@H](CCCCN)C(N)=O` be said to have pKi at or above 9?
Result string: Not fulfilled

Query string: Can `CC[C@H](C)[C@H](NC(=O)[C@H](CCCN=C(N)N)NC(=O)[C@H](CCCN=C(N)N)NC(=O)[C@H](CC(C)C)NC(=O)[C@H](Cc1ccccc1)NC(=O)CNC(=O)CNC(=O)[C@@H](N)Cc1ccc(O)cc1)C(=O)N[C@@H](CCCN=C(N)N)C(=O)N1CCC[C@H]1C(=O)N[C@@H](CCCCN)C(=O)N[C@@H](CC(C)C)C(=O)N[C@@H](CCCCN)C(N)=O` be said to have pKi at or above 9?
Result string: Fulfilled

Query string: Can `CC[C@H](C)[C@H](NC(=O)[C@H](CCCNC(=N)N)NC(=O)[C@H](CCCNC(=N)N)NC(=O)[C@H](CC(C)C)NC(=O)[C@H](Cc1ccccc1)NC(=O)[C@@H](Cc1c[nH]c2ccccc12)NC(=O)CNC(=O)[C@@H](N)Cc1ccc(O)cc1)C(=O)N[C@@H](CCCNC(=N)N)C(=O)N1CCC[C@H]1C(=O)N[C@@H](CCCCN)C(N)=O` be said to have pKi at or above 9?
Result string: Not fulfilled

Source: ChEMBL document CHEMBL1148385
